# Test system: MDA-MB-468 breast
# measurement description: NCI-60 one-dose screen, 48 h (100 = growth as untreated, 0 = no growth, -100 = all killed)
# experimental context: 10 µM unless noted
This is part of a sample that, as a whole, favours compounds with a hit. Of some 83,000 tested, about 20% had one in any assay. The source made the active and inactive calls. Rule for the calls: active = growth percent below 10; inactive = the rest.
quantity kind: growth

Some entries whose results are on file:
C/C(=N\NC(=S)Nc1ccc(Br)cc1)c1cc2ccccc2oc1=O
-23.5% (active)
COc1ccc2c(c1)cn1c3ccc(O)cc3nc(N)c21
14.2% (inactive)
Clc1ccc(-c2nc(-c3ccco3)cn3ccnc23)cc1
-5.8% (active)
CN1CCN(Cc2ccc(NC(=O)c3cncc(C#Cc4cnc5ccc(OCC6COC6)nn45)c3)cc2C(F)(F)F)CC1
-60.7% (active)
COc1ccccc1CNCCCN1C(=O)c2ccc3c4c(ccc(c24)C1=O)C(=O)N(CCCNCCNCCCN)C3=O
-56.2% (active)

Suppose we examine the compound COc1ccc(CCNc2nc(SC)nc(-c3cccc([N+](=O)[O-])c3)c2C#N)cc1OC ; what growth value has been reported?
84.8% (inactive)

Entry to check: C[C@@H]1CC2C3C[C@H](F)C4=CC(=O)C=C[C@]4(C)[C@@]3(F)[C@@H](O)C[C@]2(C)[C@@]1(O)C(=O)CO (some centres undefined)
102% (inactive)

Entry to check: Cc1csc(NC(c2ccccc2)c2c(C)nc3ccccn23)n1 (centres undefined)
100% (inactive)

Entry to check: CC1=NN(c2nc(SCC(=O)Nc3nc4ccc(C)cc4s3)nc(-c3ccccc3)c2C#N)C(=O)C1
111% (inactive)

Entry to check: CCCn1cnc2c1c(=O)n(CCCCC(C)=O)c(=O)n2C
107% (inactive)

Entry to check: COc1ccc(S(=O)(=O)N2CCN(c3cc4c(cc3F)c(=O)c(C(=O)O)cn4C3CC3)CC2)c(OC)c1
86.4% (inactive)

Entry to check: O=C(CSc1nnc(-c2ccc(Cl)cc2)n1-c1ccccc1)Nc1ccc(F)cc1
91.8% (inactive)

Entry to check: CN1C(=O)C(=Cc2cn(Cc3ccccc3)c3ccc(Br)cc23)C(=O)N(C)C1=O
-49.4% (active)

Entry to check: N#Cc1c(-c2ccccc2)nc(SCC(=O)N2CCOCC2)[nH]c1=O
108% (inactive)

* * *

# System: MDA-MB-468 breast
# measurement description: NCI-60 one-dose screen, 48 h
# experimental context: 10 µM unless noted
This is part of a sample that, as a whole, favours compounds with a hit. Of some 83,000 tested, about 20% had one in any assay. Activity calls are given as the source filed them. The calls were made as follows: active = growth percent below 10; inactive = the rest.
Please answer using one outcome listed in 1 = active, 0 = inactive

Recorded results for 5 compounds are shown here.
COc1c(Br)cc(C(c2cc(Br)c(OC)c(Br)c2)c2ccccc2C(=O)O)cc1Br
0
O=C1/C(=C/c2ccc(O)cc2)COc2ccc(-c3ccccc3)cc21
0
CCN(CC)CCOC(=O)Nc1ccccc1Cl
0
Oc1cccc2ccc(N/N=C/c3cc(CN4CCCCC4)c(O)c4ncccc34)nc12
1
CC(=O)c1cc2c(N)c(C(=O)Nc3cccc4ccccc34)sc2nc1C
1

So what was the verdict on CNCCNc1nc2ccccc2c2c(=O)c3cccc(OC)c3sc12 in this test?
0

Entry to check: C[C@]12CC[C@H]3[C@@H](CC=C4C[C@@H](O)CC[C@@]43C)[C@@H]1CC[C@@H]2C(=O)C/C=N/O
0

Entry to check: CC(C)c1[nH]nc2c(NCc3ccc(-c4ccccn4)cc3)nc(SCCN)nc12
1

* * *

# System: MDA-MB-468 breast
# measurement description: NCI-60 one-dose screen, 48 h
# experimental context: 10 µM unless noted
The panel holds about 83,000 compounds, 20% with a hit somewhere; the sample as a whole holds those more often. Activity calls are given as the source filed them. How the source made its calls: active means growth percent below 10; inactive means the rest.
Please answer using one outcome listed in active, inactive

Cn1nc(Nc2ccccc2)c(C(=O)NN)c1N
inactive
COc1nc(N(C)O)nc(N(C)O)n1
inactive
CC(=O)O[C@@]12CO[C@@H]1C[C@H](O)[C@@]1(C)C(=O)[C@H](O)C3=C(C)[C@@H](OC(=O)[C@H](O)[C@@H](NC(=O)OC(C)(C)C)c4ccccc4)C[C@@](O)([C@@H](OC(=O)c4ccccc4)C12)C3(C)C (some centres not stated)
active
CC1OC2CC(=O)OC2C2=C1C(=O)c1c(O)cccc1C2=O (configuration not stated)
active
Cc1nn(-c2ccccc2)c2c1N=c1s/c(=C\c3cn(-c4ccccc4)nc3-c3ccc(Cl)cc3)c(=O)n1C(C)N2 (configuration not stated)
inactive

So what was the verdict on OC(c1cc(C23CC4CC(CC(C4)C2)C3)nc2c(Cl)cc(Cl)cc12)C1CCCCN1 (configuration not stated) in this test?
active

Entry to check: CCCCN(CCCC)CCCN=c1nc2c(c(N)n1-c1ccccc1)c(=S)n(-c1ccccc1)c(=S)n2-c1ccccc1
active

* * *

# Tested on: MDA-MB-468 breast
# measurement description: NCI-60 one-dose screen, 48 h (100 = growth as untreated, 0 = no growth, -100 = all killed)
# experimental context: 10 µM unless noted
About 83,000 compounds went through this panel and 20% of them were active in at least one assay; those are over-represented in the sample as a whole.
quantity kind: growth (%)
// return numeric value only (unit: %, not printed)

Some entries whose results are on file:
Cc1ccc2nc(N)nnc2c1
102
CN1CCN(Cc2ccc(NC(=O)c3cncc(C#Cc4cnc(N)nc4)c3)cc2C(F)(F)F)CC1
36
COc1cccc(-c2nn(-c3ccccc3)cc2-c2ccnc(NCCCNC(=O)c3cccc(C(F)(F)F)c3)c2)c1
17.3
O=C1Nc2ccc(F)cc2/C1=C/c1nc(-c2ccc(F)cc2)n2ccccc12
113
Nc1c(C(=O)Nc2cccc(Cl)c2)sc2ncc(Br)cc12
94.1

Suppose we examine the compound COc1cc2ncnc(Nc3ccc(F)c(Cl)c3)c2cc1OCC(=O)N1CCOCC1 ; what growth value has been reported?
-15.9

Entry to check: CCOC(=O)c1c2c(n3ccc(C)cc13)C(=O)c1ccccc1C2=O
102

Entry to check: O=C(N/N=C\c1c(O)ccc2ccccc12)C1CC1
11.8

Entry to check: COc1ccc(-c2cc(/C=C/C(=O)c3ccc(N)cc3)[nH]n2)cc1OC
-1.28

Entry to check: CCc1n(Cc2ccc3ccccc3n2)cc[n+]1Cc1ccc2ccccc2n1
-30.1

Entry to check: CC(=O)CCSc1ccc(OC(C)=O)cc1
101

Entry to check: O=C(Nc1ccc(-n2cc(-c3ccncc3)c(-c3ccc(O)c(Cl)c3)n2)cc1)c1ccc(Cl)c(Cl)c1
39.9

Entry to check: Cc1cc(C)n(C(=O)c2sc(=S)n(-c3ccccc3)c2N=Nc2c(N)n[nH]c2N)n1
112

* * *

# Test system: MDA-MB-468 breast
# measurement description: NCI-60 one-dose screen, 48 h
# experimental context: 10 µM unless noted
About 83,000 compounds went through this panel and 20% of them were active in at least one assay; those are over-represented in the sample as a whole. Activity calls are given as the source filed them. Rule for the calls: active = growth percent below 10; inactive = the rest.
Please answer using one outcome listed in y = active, n = inactive

Recorded results for 6 molecules are shown here.
COc1ccc(/C=C2\SC(=O)N(Cc3cc(=O)oc4ccc(OC)cc34)C2=O)cc1
n
NC(N)=N/N=C/c1cccc(Cl)c1Cl
n
COc1cc(/C=C2/C=C(c3ccc(C(C)(C)C)cc3)N(CCc3ccc(S(N)(=O)=O)cc3)C2=O)cc(OC)c1OC
n
COc1ccc2c(c1)C(C)Cc1c(ncnc1-n1c(C)nc3ccccc31)N2C (stereo unspecified)
n
COc1ccc(-c2nc3ccc(-c4nc5ccc(N6CCN(c7ccncc7)CC6)cc5[nH]4)cc3[nH]2)cc1OC
y
CC(C)[C@H]1c2[nH]c3ccccc3c2C[C@H]2C(=O)N(CCCCCCC(=O)NO)CC(=O)N12
n

Now look at this entry.
So what was the verdict on O=C(Nc1cccc(-n2cc(-c3ccncc3)c(-c3ccc(O)c(Cl)c3)n2)c1)c1cc(C(F)(F)F)cc(C(F)(F)F)c1 in this test?
n

* * *

# Tested on: MDA-MB-468 breast
# measurement description: NCI-60 one-dose screen, 48 h
# experimental context: 10 µM unless noted
Compounds without any hit were thinned out: in the full panel of roughly 83,000, 20% have a hit. The source made the active and inactive calls. How the source made its calls: active means growth percent below 10; inactive means the rest.
Please answer using one outcome listed in active, inactive

CC[C@@H](C(=O)[C@@H](C)[C@@H](O)[C@H](C)[C@@H]1O[C@@H]([C@@H](CC)C(=O)NCCc2ccc(F)cc2)CC[C@@H]1C)C1O[C@]2(C=CC(=O)[C@]3(CC[C@@](C)([C@H]4CC[C@](O)(CC)[C@H](C)O4)O3)O2)[C@H](C)C[C@@H]1C (stereo partly drawn)
inactive

So what was the verdict on O=S(=O)(NCCNc1nccc(-c2c(-c3cccc(O)c3)nc3sccn23)n1)c1ccc(F)cc1 in this test?
inactive

Entry to check: CCN(CC)CCCC(C)NCC(=O)NC(c1ccc2c(c1)OCO2)c1cc(Cl)c2cccnc2c1O (stereo not drawn)
inactive

Entry to check: CC(C)(Sc1cc(C(C)(C)C)c(O)c(C(C)(C)C)c1)Sc1cc(C(C)(C)C)c(OC(=O)CCC(=O)O)c(C(C)(C)C)c1
inactive

Entry to check: NC(N)=NC1CCCCC1
inactive

Entry to check: NNC(=O)CSc1nc2scc(-c3ccccc3)c2c(=O)n1-c1ccccc1
inactive

Entry to check: CCN(CC)CC(O)CNc1ccnc2cc(Cl)c(Cl)cc12 (stereo not drawn)
inactive
